# Tested on: SK-OV-3 ovarian
# method_summary: NCI tumour cell line growth inhibition, 48 h
reported_metric: TGI

Nc1ccccc1C#CC#Cc1ccccc1N
> 100 µM
CC(C)C(C(=O)O)N(CC1(O)OCC(O)C(O)C1O)N=O (stereo unspecified)
> 100 µM
CC(O)C1OC(O)C2OC(C)(C)OC12 (stereo unspecified)
> 100 µM
Cc1ccc(-c2c(C#N)c(-c3ccc(Cl)cc3)c(C#N)c(=O)n2NS(=O)(=O)c2ccccc2)cc1
> 100 µM
CCCCCCCCCCCCN1C(C)=CS/C1=C\C=C\c1scc(C)[n+]1CCCCCCCCCCCC
22.9 µM

Now for the compound whose TGI we want.
I looked up "Oc1ccc(C(c2ccccc2)(c2ccccc2)c2ccccc2)cc1" and its TGI for SK-OV-3 ovarian was 30 µM

* * *

# Test system: BT-549 breast
# method_summary: NCI tumour cell line growth inhibition, 48 h
Recorded TGI for the following compounds
State the answer as a number, implicitly in µM.

Cc1ccc2c(c1)SSSSS2
39.1

Okay, now this compound:
TGI for BT-549 breast with input "Cc1ccc(Nc2nc(NCCO)c3ccccc3n2)cc1C" equals 23.6

* * *

# System: NCI-H460 lung
# method_summary: NCI tumour cell line growth inhibition, 48 h
reported_metric: TGI

The following compounds have reported results that may help.
CCOc1c2ccsc2c(OCC)c2ccsc12
> 100 µM
CC(C)C[C@H](NC(=O)[C@H](Cc1ccccc1)n1ccc(N2CCCCC2)cc1=O)B(O)O
> 100 µM

Here "Cn1cc(C(=O)c2nccc3c2cnc2ccccc23)ccc1=O" was tested on NCI-H460 lung, and its TGI came to > 100 µM

* * *

# Test system: SF-268 CNS
# method_summary: NCI tumour cell line growth inhibition, 48 h
Reported TGI values follow for various compounds

Consider the reported TGI for these compounds:
NC(=S)/N=C/c1c(O)c2ccccc2oc1=O
> 100 µM
COc1ccc2[nH]c(CCNC(=O)c3cc([N+](=O)[O-])cc([N+](=O)[O-])c3)cc2c1
> 100 µM
CC(Cn1c2c3ccccc3ccc2c2oc(=O)c3ccccc3c21)N(C)C (stereo not given)
> 100 µM

// TGI value for "C=C1C(=O)O[C@@H]2[C@H]3O[C@]3(C)CCC=C(C)CC[C@@H]12" : 62.6 µM

Entry under test: "C/C(=N/NC(=S)Nc1ccccc1Cl)c1ccccn1" . Its TGI was 34.6 µM

TGI recorded for this compound, "O=[N+]([O-])c1ccc(N2CCN(Cc3ccccc3)CC2)c2c1no[n+]2[O-]" , is 3.22 µM

Reported TGI of "CCNc1nnc(CSc2nc(-c3ccccc3)c(-c3ccccc3)[nH]2)s1" : 39.3 µM

The compound identified as "CN(C1=NCCO1)c1cccc2ccccc12" registered its TGI at > 10 µM

Reported TGI of Cc1ccc(S(=O)(=O)N/N=C(\CCN2CCCC2)CC(c2ccccc2)c2c(O)c3ccccc3oc2=O)cc1 (stereo not given) : > 100 µM

TGI reading for "CSC1=N/C(=C\c2ccc(C)cc2)C(=O)N1CN1CCOCC1" : > 100 µM

* * *

Entries and their measured TGI follow.
# System: SF-268 CNS
# method_summary: NCI tumour cell line growth inhibition, 48 h

NC(=O)NC(=O)c1cnccn1
> 100 µM
O=C(Cc1nc2ccccc2s1)C(=O)Nc1ccc(Cl)cc1
> 100 µM
CCc1ccc(-c2nnc(COc3ccc(-c4nc5ccc(C)cc5[nH]4)cc3OC)o2)cc1
> 100 µM

For Cc1ccc(/C=C2\CN(C)CC3=C2OC(N)=C(C#N)C3c2ccc(C)cc2)cc1 (stereo not given) the compound record lists TGI as > 100 µM

Field TGI (entry "CCN(CC)CCCN(c1cc(OC)cc2nccnc12)S(=O)(=O)c1ccc(C)cc1" ) reads > 100 µM

Reported TGI for "CN1CCN(Cc2ccc(-c3cc4ncnc(Nc5ccc(OCc6cccc(F)c6)c(Cl)c5)c4s3)o2)CC1" was 8.7 µM

Value of TGI reported for the compound "CNc1ncnc(Sc2nc(N)nc3nc[nH]c23)c1[N+](=O)[O-]" is > 36.5 µM

Recorded result, Cc1ccc(S(=O)ON2CCC(C(=O)O)(c3ccccc3)CC2)cc1 (stereo not given) , TGI: > 100 µM

The recorded TGI for "COc1ccc(C(=O)Cn2c(C(=O)c3ccc(Cl)cc3)nc3ccccc32)cc1" is > 100 µM

TGI in this record for "c1ccc2c(c1)ccc1nc(-c3ccc4c(c3)OCO4)c3c(c12)CCCC3" : 88.1 µM
